// viability, T/C lookup, one value per entry
test system: 379773-124-R-J2-PDC complex spheroids, viability % test/control; experiment: Anticancer human tumor 379773-124-R-J2-PDC patient-derived endometrial carcinoma cell line growth inhibition [CLK]; conditions: second compound 10 µM; first compound 10 µM; active compounds read low
// return numeric value only (unit: %, not printed)

Take a look at these entries with their results.
- COMPOUND: "Nc1ccn(C2OC(CO)C(O)C2(F)F)c(=O)n1 (stereo not drawn) + CNC(=O)c1ccc(Nc2nc(OC3CCCC3)c3c(-c4ccc5nc(C)oc5c4)c[nH]c3n2)c(OC)c1"
  viability, T/C (%): 1.76
- COMPOUND: "CC(Nc1ccc2c(c1)OCCn1cc(N3C(=O)OCC3C(F)F)nc1-2)C(N)=O (stereo not drawn) + CN1CCN(c2cc(C(=O)Nc3cc4cc(-c5cnn(C)c5)ccc4cn3)ccn2)CC1"
  viability, T/C (%): 0.19

Challenge: Retrieve viability, T/C on 379773-124-R-J2-PDC complex spheroids, viability % test/control; query C=CC(=O)N1CCN(c2nc(=O)n(-c3c(C)ccnc3C(C)C)c3nc(-c4c(O)cccc4F)c(F)cc23)C(C)C1 (stereo not drawn) + CNC(=O)c1ccc(Nc2nc(OC3CCCC3)c3c(-c4ccc5nc(C)oc5c4)c[nH]c3n2)c(OC)c1
Response given: 18.4

----------
tested on: 379773-124-R-J2-PDC complex spheroids, viability % test/control; assay: Anticancer human tumor 379773-124-R-J2-PDC cell line growth inhibition [CLK]; conditions: second compound 0.0316 µM; first compound 3.16 µM; active compounds read low;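 further: compound exposure lasted seven days before the viability readout; 100% = DMSO vehicle control wells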
// viability, T/C lookup, one value per entry
// return numeric value only (unit: %, not printed)

- COMPOUND: "C=CC(=O)N1CCN(c2nc(=O)n(-c3c(C)ccnc3C(C)C)c3nc(-c4c(O)cccc4F)c(F)cc23)C(C)C1 (stereo not given) + CNC(=O)c1ccc(Nc2nc(OC3CCCC3)c3c(-c4ccc5nc(C)oc5c4)c[nH]c3n2)c(OC)c1"
  OBSERVED RESULT: 76.5
- COMPOUND: "CC(CO)NC(=O)c1cc(-c2ccc(Cl)cc2)nn(-c2cnn(C)c2)c1=O (stereo not given) + CN1CCN(c2cc(C(=O)Nc3cc4cc(-c5cnn(C)c5)ccc4cn3)ccn2)CC1"
  OBSERVED RESULT: 102
- COMPOUND: "C=C(F)C(=O)N1CCN(c2nc(OCC3CCCN3C)nc3c2CCN(c2cccc4cccc(Cl)c24)C3)CC1CC#N (stereo not given) + CN1CCN(c2cc(C(=O)Nc3cc4cc(-c5cnn(C)c5)ccc4cn3)ccn2)CC1"
  OBSERVED RESULT: 73.9
- COMPOUND: "CC1COCCN1c1cc(C2(S(C)(=N)=O)CC2)nc(-c2ccnc3[nH]ccc23)n1 (stereo not given) + CN1CCN(c2cc(C(=O)Nc3cc4cc(-c5cnn(C)c5)ccc4cn3)ccn2)CC1"
  OBSERVED RESULT: 42.8

Shift focus to the following entry.
Challenge: Answer with the recorded viability, T/C for the compound listed here: CC(=O)O[C@H]1C(=O)[C@@]2(C)[C@H]([C@H](OC(=O)c3ccccc3)[C@]3(O)C[C@H](OC(=O)[C@H](O)[C@@H](NC(=O)c4ccccc4)c4ccccc4)C(C)=C1C3(C)C)[C@]1(OC(C)=O)CO[C@@H]1C[C@@H]2O + CN1CCN(c2cc(C(=O)Nc3cc4cc(-c5cnn(C)c5)ccc4cn3)ccn2)CC1
Response given: 6.08

----------
// viability, T/C lookup, one value per entry
Test system: 379773-124-R-J2-PDC complex spheroids, viability % test/control
Assay: Anticancer human tumor 379773-124-R-J2-PDC cell line growth inhibition [CLK];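 further: compound exposure lasted seven days before the viability readout; 100% = DMSO vehicle control wells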
Settings: second compound 0.1 µM; first compound 0.0316 µM; active compounds read low
Excerpt: A high-throughput screen of multi-cell type tumor spheroids was designed to identify active combinations of […] and targeted small molecules. Complex spheroids include a stromal component modeled by human endothelial cells (HUVEC) and fibroblasts modeled by human mesenchymal stem cells (MSCs). […] Compounds. […] If the clinical Cmax for an agent had not been determined, the highest concentration tested was 10 microM. […]

- COMPOUND: "CC(=O)O[C@H]1C(=O)[C@@]2(C)[C@H]([C@H](OC(=O)c3ccccc3)[C@]3(O)C[C@H](OC(=O)[C@H](O)[C@@H](NC(=O)c4ccccc4)c4ccccc4)C(C)=C1C3(C)C)[C@]1(OC(C)=O)CO[C@@H]1C[C@@H]2O + CNC(=O)c1ccc(Nc2nc(OC3CCCC3)c3c(-c4ccc5nc(C)oc5c4)c[nH]c3n2)c(OC)c1"
  viability, T/C: "24.6%"
- COMPOUND: "C=CC(=O)N1CCN(c2nc(=O)n(-c3c(C)ccnc3C(C)C)c3nc(-c4c(O)cccc4F)c(F)cc23)C(C)C1 (centres undefined) + CN1CCN(c2cc(C(=O)Nc3cc4cc(-c5cnn(C)c5)ccc4cn3)ccn2)CC1"
  viability, T/C: "85.5%"
- COMPOUND: "COc1cccc2c1C(=O)c1c(O)c3c(c(O)c1C2=O)CC(O)(C(=O)CO)CC3OC1CC(N)C(O)C(C)O1 (centres undefined) + CN1CCN(c2cc(C(=O)Nc3cc4cc(-c5cnn(C)c5)ccc4cn3)ccn2)CC1"
  viability, T/C: "30.5%"

Shift focus to the following entry.
Challenge: Answer with the recorded viability, T/C for the compound listed here: C#Cc1c(F)ccc2cc(O)cc(-c3ncc4c(N5CC6CCC(C5)N6)nc(OCC56CCCN5CC(F)C6)nc4c3F)c12 (centres undefined) + CNC(=O)c1ccc(Nc2nc(OC3CCCC3)c3c(-c4ccc5nc(C)oc5c4)c[nH]c3n2)c(OC)c1
Response given: 41.2%

----------
system: 379773-124-R-J2-PDC complex spheroids, viability % test/control; test: Anticancer human tumor 379773-124-R-J2-PDC cell line growth inhibition [CLK]; conditions: second compound 0.0316 µM; first compound 0.1 µM; active compounds read low;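 further: compound exposure lasted seven days before the viability readout; 100% = DMSO vehicle control wells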
METRIC: viability, T/C (%)
// return numeric value only (unit: %, not printed)

Take a look at these entries with their results.
- MOLECULE: "COc1c(OCCCN2CCOCC2)ccc2c3n(c(=NC(=O)c4cnc(N)nc4)nc12)CCN3 + CNC(=O)c1ccc(Nc2nc(OC3CCCC3)c3c(-c4ccc5nc(C)oc5c4)c[nH]c3n2)c(OC)c1"
  OBSERVED RESULT: 37.5
- MOLECULE: "COc1c(OCCCN2CCOCC2)ccc2c3n(c(=NC(=O)c4cnc(N)nc4)nc12)CCN3 + CN1CCN(c2cc(C(=O)Nc3cc4cc(-c5cnn(C)c5)ccc4cn3)ccn2)CC1"
  OBSERVED RESULT: 33.5
- MOLECULE: "CCN1CCN(Cc2ccc(Nc3ncc(F)c(-c4cc(F)c5nc(C)n(C(C)C)c5c4)n3)nc2)CC1 + CN1CCN(c2cc(C(=O)Nc3cc4cc(-c5cnn(C)c5)ccc4cn3)ccn2)CC1"
  OBSERVED RESULT: 98
- MOLECULE: "CCc1c2c(nc3ccc(O)cc13)-c1cc3c(c(=O)n1C2)COC(=O)[C@]3(O)CC + CNC(=O)c1ccc(Nc2nc(OC3CCCC3)c3c(-c4ccc5nc(C)oc5c4)c[nH]c3n2)c(OC)c1"
  OBSERVED RESULT: 1.86

Challenge: Answer with the recorded viability, T/C for the molecule listed here: C=C(F)C(=O)N1CCN(c2nc(OCC3CCCN3C)nc3c2CCN(c2cccc4cccc(Cl)c24)C3)CC1CC#N (stereo not given) + CN1CCN(c2cc(C(=O)Nc3cc4cc(-c5cnn(C)c5)ccc4cn3)ccn2)CC1
Response given: 86

----------
tested on: 379773-124-R-J2-PDC complex spheroids, viability % test/control; test: Anticancer human tumor 379773-124-R-J2-PDC cell line growth inhibition [CLK]; conditions: second compound 0.0316 µM; first compound 0.00316 µM; active compounds read low;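 further: compound exposure lasted seven days before the viability readout; 100% = DMSO vehicle control wells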
METRIC: viability, T/C

Take a look at these entries with their results.
- MOLECULE: "CCN1CCN(Cc2ccc(Nc3ncc(F)c(-c4cc(F)c5nc(C)n(C(C)C)c5c4)n3)nc2)CC1 + CNC(=O)c1ccc(Nc2nc(OC3CCCC3)c3c(-c4ccc5nc(C)oc5c4)c[nH]c3n2)c(OC)c1"
  viability, T/C: "74.5%"
- MOLECULE: "COc1c(OCCCN2CCOCC2)ccc2c3n(c(=NC(=O)c4cnc(N)nc4)nc12)CCN3 + CNC(=O)c1ccc(Nc2nc(OC3CCCC3)c3c(-c4ccc5nc(C)oc5c4)c[nH]c3n2)c(OC)c1"
  viability, T/C: "81.8%"
- MOLECULE: "CCN1CCN(Cc2ccc(Nc3ncc(F)c(-c4cc(F)c5nc(C)n(C(C)C)c5c4)n3)nc2)CC1 + CN1CCN(c2cc(C(=O)Nc3cc4cc(-c5cnn(C)c5)ccc4cn3)ccn2)CC1"
  viability, T/C: "90.3%"
- MOLECULE: "CCc1c2c(nc3ccc(O)cc13)-c1cc3c(c(=O)n1C2)COC(=O)[C@]3(O)CC + CNC(=O)c1ccc(Nc2nc(OC3CCCC3)c3c(-c4ccc5nc(C)oc5c4)c[nH]c3n2)c(OC)c1"
  viability, T/C: "12.8%"

Shift focus to the following entry.
Challenge: Retrieve viability, T/C on 379773-124-R-J2-PDC complex spheroids, viability % test/control; query Cn1ncnc1[C@H]1c2n[nH]c(=O)c3cc(F)cc(c23)N[C@@H]1c1ccc(F)cc1 + CN1CCN(c2cc(C(=O)Nc3cc4cc(-c5cnn(C)c5)ccc4cn3)ccn2)CC1
Response given: 80.3%

Data provenance: PubChem BioAssay AID2060604
